Collected combination Emax values appear next to each entry.
Tested on: OACM5-1 (Esophageal Adenocarcinoma)
Test protocol: combination Emax (second highest fraction inhibited in the dose matrix, 72 h); higher = more inhibition; extreme values may be limits of the assay
Metric name: combination Emax

Compound: CN(C)CCCOc1ccc(-c2ccc3ncc4c(c3c2)n(C2CCOCC2)c(=O)n4C)cn1 [AZD0156] + C=CCn1c(=O)c2cnc(Nc3ccc(N4CCN(C)CC4)cc3)nc2n1-c1cccc(C(C)(C)O)n1 [AZD1775] (first compound max 1 µM, partner max 1 µM)
Assay value: 0.414
//
Compound: Cc1c2c(nn1C)CSCc1cc(n(C)n1)CSc1cc(c3ccccc3c1)OCCCc1c(C(=O)O)n(C)c3c-2c(Cl)ccc13 [AZD5991] + CC1(C)CCC(CN2CCN(c3ccc(C(=O)NS(=O)(=O)c4ccc(NCC5CCOCC5)c([N+](=O)[O-])c4)c(Oc4cnc5[nH]ccc5c4)c3)CC2)=C(c2ccc(Cl)cc2)C1 [Venetoclax] (first compound max 1 µM, 7x7, partner max 1 µM)
Assay value: 0.917

====

Tested on: COLO-679 (Melanoma)
Test protocol: Bliss excess, mean over the matrix (fraction); higher = more synergy
Satisfied means recorded Bliss excess is -0.09 or above; Not satisfied means it is below -0.09.

Compound: O=C(c1cc(Cc2n[nH]c(=O)c3ccccc23)ccc1F)N1CCN(C(=O)C2CC2)CC1 [Olaparib] + CN(CC[C@H](CSC1=CC=CC=C1)NC2=C(C=C(C=C2)S(=O)(=O)NC(=O)C3=CC=C(C=C3)N4CCC(CC4)[C@H](C5=CC=CC=C5C6=CC=C(C=C6)Cl)O)S(=O)(=O)C(F)(F)F)CCO [AZD4320] (first compound max 10 µM, 7x7, partner max 1 µM)
Tested on: COLO-679 (Melanoma)
Classification: Satisfied
//
Compound: N#Cc1cnc(Nc2cc(NC[C@H]3CNCCO3)c(C(F)(F)F)cn2)cn1 [SRA737] + O=c1[nH]cc(F)c(=O)[nH]1 [5-Fluorouracil] (first compound max 10 µM, 7x7, partner max 20 µM)
Tested on: COLO-679 (Melanoma)
Classification: Not satisfied
//
Compound: C[C@@H]1COCCN1c1cc(C2([S@](C)(=N)=O)CC2)nc(-c2ccnc3[nH]ccc23)n1 [AZD6738] + C1CC(C1)(C(=O)[O-])C(=O)[O-].N.N.[Pt+2] [Carboplatin] (first compound max 10 µM, 7x7, partner max 10 µM)
Tested on: COLO-679 (Melanoma)
Classification: Not satisfied
//
Compound: COc1cccc(OCCCN)c1-c1cc(Nc2cnc(C#N)cn2)n[nH]1 [Prexasertib] + CCc1c2c(nc3ccc(O)cc13)-c1cc3c(c(=O)n1C2)COC(=O)[C@]3(O)CC [SN-38] (first compound max 1 µM, 7x7, partner max 0.3 µM)
Tested on: COLO-679 (Melanoma)
Classification: Not satisfied
//
Compound: COc1nnc2ccc(N3CCC(c4ccc(OCCN5CCN(C)C(=O)[C@H]5C)cc4)CC3)nn12 [AZD5153] + CC1(C)CCC(CN2CCN(c3ccc(C(=O)NS(=O)(=O)c4ccc(NCC5CCOCC5)c([N+](=O)[O-])c4)c(Oc4cnc5[nH]ccc5c4)c3)CC2)=C(c2ccc(Cl)cc2)C1 [Venetoclax] (first compound max 1 µM, 7x7, partner max 1 µM)
Tested on: COLO-679 (Melanoma)
Classification: Satisfied
//
Compound: CN(CCO)CC[C@H](CSc1ccccc1)Nc1ccc(S(=O)(=O)NC(=O)c2ccc(N3CCC([C@@H](O)c4ccccc4-c4ccc(Cl)cc4)CC3)cc2)cc1S(=O)(=O)C(F)(F)F [AZD4320] + CCN(CCO)CCCOc1ccc2c(Nc3cc(CC(=O)Nc4cccc(F)c4)[nH]n3)ncnc2c1 [AZD2811] (first compound max 1 µM, 7x7, partner max 1 µM)
Tested on: COLO-679 (Melanoma)
Classification: Satisfied
//
Compound: Cc1cc2ncnn2cc1Nc1ncc2c(n1)n(C1CCOCC1)c(=O)n2C [AZD7648] + O=C(c1cc(Cc2n[nH]c(=O)c3ccccc23)ccc1F)N1CCN(C(=O)C2CC2)CC1 [Olaparib] (first compound max 10 µM, 7x7, partner max 10 µM)
Tested on: COLO-679 (Melanoma)
Classification: Satisfied

====

Tested on: SK-N-AS (Neuroblastoma)
Test protocol: Bliss excess, mean over the matrix (fraction); higher = more synergy
label 1 means recorded Bliss excess is -0.05 or above; label 0 means it is below -0.05.

Compound: CCN(CCO)CCCOc1ccc2c(Nc3cc(CC(=O)Nc4cccc(F)c4)[nH]n3)ncnc2c1 [AZD2811] + C[C@@H]1COCCN1C2=NC(=NC(=C2)C3(CC3)[S@](=N)(=O)C)C4=C5C=CNC5=NC=C4 [AZD6738] (first compound max 1 µM, 7x7, partner max 10 µM)
Classification: label 1
--
Compound: Cn1cnc2c(F)c(Nc3ccc(Br)cc3Cl)c(C(=O)NOCCO)cc21 [Selumetinib] + CC(C)n1c(=O)n(C)c2cnc3cc(F)c(-c4ccc(OCCCN5CCCCC5)nc4)cc3c21 [AZD1390] (first compound max 10 µM, 7x7, partner max 0.3 µM)
Classification: label 1
--
Compound: CN(CCO)CC[C@H](CSc1ccccc1)Nc1ccc(S(=O)(=O)NC(=O)c2ccc(N3CCC([C@@H](O)c4ccccc4-c4ccc(Cl)cc4)CC3)cc2)cc1S(=O)(=O)C(F)(F)F [AZD4320] + C1CN(CCC1(C(=O)N[C@@H](CCO)C2=CC=C(C=C2)Cl)N)C3=NC=NC4=C3C=CN4 [Capivasertib] (first compound max 1 µM, 7x7, partner max 3 µM)
Classification: label 1
--
Compound: CC1(C)CCC(CN2CCN(c3ccc(C(=O)NS(=O)(=O)c4ccc(NCC5CCOCC5)c([N+](=O)[O-])c4)c(Oc4cnc5[nH]ccc5c4)c3)CC2)=C(c2ccc(Cl)cc2)C1 [Venetoclax] + C=CCn1c(=O)c2cnc(Nc3ccc(N4CCN(C)CC4)cc3)nc2n1-c1cccc(C(C)(C)O)n1 [AZD1775] (first compound max 1 µM, partner max 1 µM)
Classification: label 0
--
Compound: NC1(C(=O)N[C@@H](CCO)c2ccc(Cl)cc2)CCN(c2ncnc3[nH]ccc23)CC1 [Capivasertib] + CC(C)n1c(=O)n(C)c2cnc3cc(F)c(-c4ccc(OCCCN5CCCCC5)nc4)cc3c21 [AZD1390] (first compound max 10 µM, 7x7, partner max 0.3 µM)
Classification: label 0
--
Compound: C[C@@H]1COCCN1c1cc(C2([S@](C)(=N)=O)CC2)nc(-c2ccnc3[nH]ccc23)n1 [AZD6738] + C1CC(C1)(C(=O)[O-])C(=O)[O-].N.N.[Pt+2] [Carboplatin] (first compound max 10 µM, 7x7, partner max 10 µM)
Classification: label 0
--
Compound: COc1nnc2ccc(N3CCC(c4ccc(OCCN5CCN(C)C(=O)[C@H]5C)cc4)CC3)nn12 [AZD5153] + C[C@@H]1COCCN1C2=NC(=NC(=C2)C3(CC3)[S@](=N)(=O)C)C4=C5C=CNC5=NC=C4 [AZD6738] (first compound max 1 µM, 7x7, partner max 10 µM)
Classification: label 1

====

System: EFO-21 (Ovarian Carcinoma)
Test protocol: combination Emax (second highest fraction inhibited in the dose matrix, 72 h); higher = more inhibition; extreme values may be limits of the assay
Collected combination Emax values appear next to each entry.
Metric name: combination Emax

Compound: Cn1cnc2c(F)c(Nc3ccc(Br)cc3Cl)c(C(=O)NOCCO)cc21 [Selumetinib] + C[C@@H]1COCCN1C2=NC(=NC(=C2)C3(CC3)[S@](=N)(=O)C)C4=C5C=CNC5=NC=C4 [AZD6738] (first compound max 10 µM, 7x7, partner max 10 µM)
Assay value: 0.255

Compound: CCc1c2c(nc3ccc(O)cc13)-c1cc3c(c(=O)n1C2)COC(=O)[C@]3(O)CC [SN-38] + O=C(c1cc(Cc2n[nH]c(=O)c3ccccc23)ccc1F)N1CCN(C(=O)C2CC2)CC1 [Olaparib] (first compound max 0.3 µM, 7x7, partner max 10 µM)
Assay value: 0.586

====

Tested on: ME-180 (Cervical Carcinoma)
Test protocol: combination Emax (second highest fraction inhibited in the dose matrix, 72 h); higher = more inhibition; extreme values may be limits of the assay
Collected combination Emax values appear next to each entry.

Compound: COc1nnc2ccc(N3CCC(c4ccc(OCCN5CCN(C)C(=O)[C@H]5C)cc4)CC3)nn12 [AZD5153] + CC1(C)CCC(CN2CCN(c3ccc(C(=O)NS(=O)(=O)c4ccc(NCC5CCOCC5)c([N+](=O)[O-])c4)c(Oc4cnc5[nH]ccc5c4)c3)CC2)=C(c2ccc(Cl)cc2)C1 [Venetoclax] (first compound max 1 µM, 7x7, partner max 1 µM)
combination Emax: 0.49

Compound: CN(CCO)CC[C@H](CSc1ccccc1)Nc1ccc(S(=O)(=O)NC(=O)c2ccc(N3CCC([C@@H](O)c4ccccc4-c4ccc(Cl)cc4)CC3)cc2)cc1S(=O)(=O)C(F)(F)F [AZD4320] + C=CCn1c(=O)c2cnc(Nc3ccc(N4CCN(C)CC4)cc3)nc2n1-c1cccc(C(C)(C)O)n1 [AZD1775] (first compound max 1 µM, partner max 1 µM)
combination Emax: 0.581

Compound: Cc1c2c(nn1C)CSCc1cc(n(C)n1)CSc1cc(c3ccccc3c1)OCCCc1c(C(=O)O)n(C)c3c-2c(Cl)ccc13 [AZD5991] + CC1(C)CCC(CN2CCN(c3ccc(C(=O)NS(=O)(=O)c4ccc(NCC5CCOCC5)c([N+](=O)[O-])c4)c(Oc4cnc5[nH]ccc5c4)c3)CC2)=C(c2ccc(Cl)cc2)C1 [Venetoclax] (first compound max 1 µM, 7x7, partner max 1 µM)
combination Emax: 0.286
